- assayedTarget: T1, soluble TDP-43 (human, UniProt Q13148 1-414)
- T1 construct: also called soluble full-length TDP-43; FL TDP-43
- T1 sequence (Q13148 whole entry): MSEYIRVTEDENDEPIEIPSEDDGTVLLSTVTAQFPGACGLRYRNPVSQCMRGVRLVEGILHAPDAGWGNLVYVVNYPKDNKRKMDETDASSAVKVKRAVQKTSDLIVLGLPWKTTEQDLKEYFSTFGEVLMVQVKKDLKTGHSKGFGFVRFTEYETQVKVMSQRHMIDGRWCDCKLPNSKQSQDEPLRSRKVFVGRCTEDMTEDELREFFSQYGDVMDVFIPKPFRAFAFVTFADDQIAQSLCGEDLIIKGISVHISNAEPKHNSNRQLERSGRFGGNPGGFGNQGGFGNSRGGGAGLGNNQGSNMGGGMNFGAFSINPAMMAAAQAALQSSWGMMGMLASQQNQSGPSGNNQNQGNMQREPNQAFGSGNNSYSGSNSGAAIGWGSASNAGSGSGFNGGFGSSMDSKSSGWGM
- assayOverview: SPR Biacore 8K, soluble TDP-43 immobilized on CM5, mAb injected, single-cycle kinetics
Overview of recorded koff for various binders
Form entry: value (s⁻¹) — number only.

Please review the entries below; each comes with its answer.
1. hACI-7069-633B12-Ab1_H32L26 (antibody, V domains shown) VH: EVQLVQSGAEVKKPGATVKISCKVSGFTFTEYSMHWVQQAPGKGLEWMGGINPQNAGTSYNQKFQGRVTITADTSTDTAYMELSSLRSEDTAVYYCARESWGQGTTVTVSS VL: DIVMTQSPLSLPVTPGEPASISCKSSQSLLHSDAKTYLNWLLQKPGQSPQRLIYLVSKLDSRVPDRFSGSGSGTDFTLKISRVEAEDVGVYYCFQGTHFPHTFGQGTKLEIK :: 1.7e-05
2. hACI-7069-633B12-Ab1_H33L24 (antibody, V domains shown) VH: EVQLVQSGAEVKKPGATVKISCKVSGFTFTEYSMHWVQQAPGKGLEWMGGINPNNGGTSYNQKFQGRVTITADTSTDTAYMELSSLRSEDTAVYYCARESWGQGTTVTVSS VL: DIVMTQSPLSLPVTPGEPASISCKSSQSLLHSDGKTYLNWLLQKPGQSPQRLIYLVSKLDSRVPDRFSGSGSGTDFTLKISRVEAEDVGVYYCWQGTHFPHTFGQGTKLEIK :: 1.3e-05
3. hACI-7069-633B12-Ab1_H33L27 (antibody, V domains shown) VH: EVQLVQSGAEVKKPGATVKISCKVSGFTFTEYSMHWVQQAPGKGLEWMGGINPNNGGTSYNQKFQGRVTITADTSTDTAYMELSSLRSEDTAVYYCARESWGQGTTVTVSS VL: DIVMTQSPLSLPVTPGEPASISCKSSQSLLHSDGKTYLNWLLQKPGQSPQRLIYLVSKLDSRVPDRFSGSGSGTDFTLKISRVEAEDVGVYYCFQGTHFPHTFGQGTKLEIK :: 6.5e-06
4. hACI-7069-633B12-Ab1_H32L24 (antibody, V domains shown) VH: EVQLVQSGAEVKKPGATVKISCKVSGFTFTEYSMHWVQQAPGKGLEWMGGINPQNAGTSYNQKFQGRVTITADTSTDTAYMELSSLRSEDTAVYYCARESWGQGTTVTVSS VL: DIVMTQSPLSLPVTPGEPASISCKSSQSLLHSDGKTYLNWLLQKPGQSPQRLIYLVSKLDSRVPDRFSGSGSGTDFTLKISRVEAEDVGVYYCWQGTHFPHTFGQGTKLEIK :: 1.5e-05
5. hACI-7069-633B12-Ab1_H28L24 (antibody, V domains shown) VH: EVQLVQSGAEVKKPGATVKISCKVSGFTFTEYSMHWVQQAPGKGLEWMGGINPNNGGTSYNQKFKGRVTITADTSTDTAYMELSSLRSEDTAVYYCARESWGQGTTVTVSS VL: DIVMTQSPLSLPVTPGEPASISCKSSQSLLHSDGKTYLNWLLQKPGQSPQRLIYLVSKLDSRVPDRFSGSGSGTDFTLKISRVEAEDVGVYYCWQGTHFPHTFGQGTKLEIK :: 1.7e-05
6. hACI-7069-633B12-Ab1_H33L26 (antibody, V domains shown) VH: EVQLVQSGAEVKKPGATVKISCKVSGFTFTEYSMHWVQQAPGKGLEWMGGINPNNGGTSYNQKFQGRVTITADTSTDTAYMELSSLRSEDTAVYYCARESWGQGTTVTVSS VL: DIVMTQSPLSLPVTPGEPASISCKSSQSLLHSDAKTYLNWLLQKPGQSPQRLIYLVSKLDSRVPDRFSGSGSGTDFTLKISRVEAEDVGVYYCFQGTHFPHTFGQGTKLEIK :: 9e-06

// next entry
Challenge: Endpoint output: koff of hACI-7069-633B12-Ab1_H27L23 (antibody, V domains shown) VH: EVQLVQSGAEVKKPGATVKISCKVSGFTFTEYSMHWVQQAPGKGLEWMGGINPNNGGTSYNQKFKGRVTITVDTSTDTAYMELSSLRSEDTAVYYCARESWGQGTTVTVSS VL: DVVMTQSPLSLPVTPGEPASISCKSSQSLLHSDGKTYLNWLLQKPGQSPQRLIYLVSKLDSRVPDRFSGSGSGTDFTLKISRVEAEDVGVYYCWQGTHFPHTFGQGTKLEIK . Value?
Response given: 2.2e-05
